Where do these numbers come from? They come from patent US11530222B2.

Measured DC50 accompanies every entry in the list below.
Tested system: BTK (Homo sapiens, UniProt Q06187)
Construct: BTK Degradative Activity of Exemplary Compounds of the Present Disclosure in a RAMOS Cell Line; host or cells: RAMOS
Sequence (Q06187 whole entry): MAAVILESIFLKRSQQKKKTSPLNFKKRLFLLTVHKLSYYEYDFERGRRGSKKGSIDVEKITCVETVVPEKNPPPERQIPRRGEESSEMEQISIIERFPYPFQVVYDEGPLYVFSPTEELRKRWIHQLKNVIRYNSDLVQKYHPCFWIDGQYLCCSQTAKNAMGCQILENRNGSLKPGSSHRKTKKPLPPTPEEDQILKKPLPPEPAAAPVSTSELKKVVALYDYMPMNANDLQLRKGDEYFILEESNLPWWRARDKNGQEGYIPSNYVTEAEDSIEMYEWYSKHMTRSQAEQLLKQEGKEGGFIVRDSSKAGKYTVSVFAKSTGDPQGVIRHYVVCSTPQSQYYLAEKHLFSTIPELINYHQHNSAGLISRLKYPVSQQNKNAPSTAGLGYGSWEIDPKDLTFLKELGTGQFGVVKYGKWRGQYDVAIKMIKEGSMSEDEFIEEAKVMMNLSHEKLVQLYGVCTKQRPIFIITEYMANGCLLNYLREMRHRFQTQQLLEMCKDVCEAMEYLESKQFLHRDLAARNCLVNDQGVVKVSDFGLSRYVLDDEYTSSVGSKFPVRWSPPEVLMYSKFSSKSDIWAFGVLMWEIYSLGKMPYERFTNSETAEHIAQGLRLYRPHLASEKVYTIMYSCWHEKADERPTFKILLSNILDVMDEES
Test: BTK degradative activity in a RAMOS cell line (Western blot)
Type: cell-based
Recorded conditions: 6 hours after administration, read-out: RAMOS BTK Degradation DC50

Here's what some known entries look like.
# Molecule, Property label, Val
data = [
    ("COc1ccc(C(=O)N2CCN(Cc3ccc(C(=O)N4CCC(Nc5ncnc6[nH]cc(C(=O)c7ccc(Oc8ccccc8)cc7Cl)c56)CC4)cc3)CC2)cc1N1CCC(=O)NC1=O", "DC50", "≥ 100 nM"),
    ("O=C1CCC(N2C(=O)c3cccc(C#CCCCCCCC(=O)N4CCC(Nc5ncnc6[nH]cc(C(=O)c7ccc(Oc8ccccc8)cc7Cl)c56)CC4)c3C2=O)C(=O)N1 (stereo not drawn)", "DC50", "≥ 100 nM"),
]

So, O=C1CCC(N2C(=O)c3ccc(OCCN4CCN(c5ccc(C(=O)N6CCC[C@@H](Nc7ncnc8[nH]cc(C(=O)c9ccc(Oc%10ccccc%10)cc9Cl)c78)C6)cn5)CC4)cc3C2=O)C(=O)N1 (stereo partly drawn) ? Its DC50 was ≥ 100 nM

###

Tested system: BTK (Homo sapiens)
Construct: BTK Degradative Activity of Exemplary Compounds of the Present Disclosure in a RAMOS Cell Line; host or cells: RAMOS
Test: BTK degradative activity in a RAMOS cell line (Western blot)
Assay type: cell-based
Recorded conditions: 6 hours after administration, read-out: RAMOS BTK Degradation DC50
Property label: DC50

Here's what some known entries look like.
# Molecule, Val
records = [
    ("O=C1CC[C@H](N2Cc3cc(N4CCN(CCCCCC(=O)N5CCC(Nc6ncnc7[nH]cc(C(=O)c8ccc(Oc9ccccc9)cc8Cl)c67)CC5)CC4)ccc3C2=O)C(=O)N1 [Compound 13]", "< 10 nM"),
    ("COc1ccc(F)cc1C(=O)NCc1ccc(-c2nn(C3CCN(c4ccc(CN5CCN(c6ccc7c(c6)CN([C@H]6CCC(=O)NC6=O)C7=O)CC5)cc4)C3)c3ncnc(N)c23)cc1 (stereo partly shown) [Compound 60]", "≥ 100 nM"),
    ("O=C1CC[C@H](N2Cc3cc(N4CCN(CCCC(=O)N5CCC(Nc6ncnc7[nH]cc(C(=O)c8ccc(Oc9ccccc9)cc8Cl)c67)CC5)CC4)ccc3C2=O)C(=O)N1 [Compound 24]", "10 to 100 nM"),
    ("O=C1CCC(N2Cc3c(C#CCCCCCC(=O)N4CCC(Nc5ncnc6[nH]cc(C(=O)c7ccc(Oc8ccccc8)cc7Cl)c56)CC4)cccc3C2=O)C(=O)N1 (stereo not shown) [Compound 40]", "≥ 100 nM"),
]

So, O=C1CCC(N2C(=O)c3ccc(N4CCN(CCCCCCCN5CCC(Nc6ncnc7[nH]cc(C(=O)c8ccc(Oc9ccccc9)cc8Cl)c67)CC5)CC4)cc3C2=O)C(=O)N1 (stereo not shown) [Compound 12] ? Its DC50 was 10 to 100 nM

So, COc1ccc(F)cc1C(=O)NCc1ccc(-c2nn(C3CCN(c4ccc(CN5CCN(c6ccc7c(c6)CN([C@H]6CCC(=O)NC6=O)C7=O)CC5)cc4)CC3)c3ncnc(N)c23)cc1 [Compound 53] ? Its DC50 was < 10 nM

So, O=C1CCC(N2C(=O)c3ccc(OCCCCCCCN4CCN(c5ccc(C(=O)N6CCC[C@@H](Nc7ncnc8[nH]cc(C(=O)c9ccc(Oc%10ccccc%10)cc9Cl)c78)C6)cn5)CC4)cc3C2=O)C(=O)N1 (stereo partly shown) [Compound 1] ? Its DC50 was ≥ 100 nM

So, COc1ccc(F)cc1C(=O)NCc1ccc(-c2nn(-c3ccc(N4CCC(CN5CCN(c6ccc7c(c6)CN([C@H]6CCC(=O)NC6=O)C7=O)CC5)C4)c(F)c3)c3ncnc(N)c23)cc1 (stereo partly shown) [Compound 65] ? Its DC50 was < 10 nM

So, O=C1CCC(N2C(=O)c3cccc(C#CCCCCC(=O)N4CCC(Nc5ncnc6[nH]cc(C(=O)c7ccc(Oc8ccccc8)cc7Cl)c56)CC4)c3C2=O)C(=O)N1 (stereo not shown) [Compound 36] ? Its DC50 was ≥ 100 nM

So, COc1ccc(C(=O)N2CCCN(CC3CCN(c4ccc(Nc5ncnc6[nH]cc(C(=O)c7ccc(Oc8ccccc8)cc7Cl)c56)cc4F)CC3)CC2)cc1N1CCC(=O)NC1=O [Compound 75] ? Its DC50 was 10 to 100 nM

###

Measured DC50 accompanies every entry in the list below.
Tested system: BTK (Homo sapiens, UniProt Q06187)
Construct: BTK Degradative Activity of Exemplary Compounds of the Present Disclosure in a RAMOS Cell Line; host or cells: RAMOS
Test: BTK degradative activity in a RAMOS cell line (Western blot)
Format: cell-based
Recorded conditions: 6 hours after administration, read-out: RAMOS BTK Degradation DC50

Here's what some known entries look like.
# Compound, Property label, Val
rows = [
    ("COc1ccc(C(=O)N2CCC(N3CCC(CC(=O)N4CCC[C@@H](Nc5ncnc6[nH]cc(C(=O)c7ccc(Oc8ccccc8)cc7Cl)c56)C4)CC3)CC2)cc1N1CCC(=O)NC1=O [Compound 77]", "DC50", "≥ 100 nM"),
    ("O=C1CCC(N2C(=O)c3ccc(N4CCN(C5CC(CC(=O)N6CCC(Nc7ncnc8[nH]cc(C(=O)c9ccc(Oc%10ccccc%10)cc9Cl)c78)CC6)C5)CC4)cc3C2=O)C(=O)N1 (stereo not drawn) [Compound 37]", "DC50", "10 to 100 nM"),
]

In the following, a different compound is considered.
So, COc1ccc(F)cc1C(=O)NCc1ccc(-c2nn(-c3ccc(N4CC[C@H](CN5CCN(c6ccc7c(c6)CN([C@H]6CCC(=O)NC6=O)C7=O)CC5)C4)c(F)c3)c3ncnc(N)c23)cc1 [Compound 95] ? Its DC50 was < 10 nM

###

Tested system: BTK (Homo sapiens, UniProt Q06187)
Construct: BTK Degradative Activity of Exemplary Compounds of the Present Disclosure in a RAMOS Cell Line; host or cells: RAMOS
Test: BTK degradative activity in a RAMOS cell line (Western blot)
Assay type: cell-based
Recorded conditions: 6 hours after administration, read-out: RAMOS BTK Degradation DC50
Measured DC50 accompanies every entry in the list below.

# Compound, DC50
measured = [
    ("O=C1CCC(N2C(=O)c3ccc(N4CCN(CCCC(=O)N5CCC(Nc6ncnc7[nH]cc(C(=O)c8ccc(Oc9ccccc9)cc8Cl)c67)CC5)CC4)cc3C2=O)C(=O)N1 (centres unmarked) [Compound 23]", "10 to 100 nM"),
    ("O=C1CCC(N2C(=O)c3ccc(OCCCCCCN4CCN(c5ccc(C(=O)N6CCC[C@@H](Nc7ncnc8[nH]cc(C(=O)c9ccc(Oc%10ccccc%10)cc9Cl)c78)C6)cn5)CC4)cc3C2=O)C(=O)N1 (some centres unmarked) [Compound 3]", "≥ 100 nM"),
    ("O=C1CC[C@H](N2Cc3cc(N4CCN(CCC5CCN(c6ccc(Nc7ncnc8[nH]cc(C(=O)c9ccc(Oc%10ccccc%10)cc9Cl)c78)cc6F)CC5)CC4)ccc3C2=O)C(=O)N1 [Compound 45]", "≥ 100 nM"),
]

In the following, a different compound is considered.
Field DC50 (system: BTK (Homo sapiens, UniProt Q06187)) for entry O=C1CCC(N2C(=O)c3ccc(N4CCN(CCC5CCN(c6ccc(Nc7ncnc8[nH]cc(C(=O)c9ccc(Oc%10ccccc%10)cc9Cl)c78)cc6F)CC5)CC4)cc3C2=O)C(=O)N1 (centres unmarked) [Compound 44] = ≥ 100 nM

###

System: REC-1 BTK^C481S cells
Test: Growth inhibitory activity in REC-1 BTK^C481S cell line (CellTiter-Glo)
Format: cell-based
Recorded conditions: Homo sapiens, Rec1, 144 h, 6 days after administration, read-out: REC1 BTK^C481S Cellular Grwoth Inhibition IC50
Property label: IC50

Here's what some known entries look like.
# Compound, IC50
records = [
    ("COc1ccc(F)cc1C(=O)NCc1ccc(-c2nn(-c3ccc(N4CC[C@H](CN5CCN(c6ccc7c(c6)CN([C@H]6CCC(=O)NC6=O)C7=O)CC5)C4)nc3)c3ncnc(N)c23)cc1", "< 20 nM"),
    ("COc1ccc(F)cc1C(=O)NCc1ccc(-c2nn(-c3ccc(N4CC(CN5CCN(c6ccc7c(c6)CN([C@H]6CCC(=O)NC6=O)C7=O)CC5)C4)nc3)c3ncnc(N)c23)cc1", "< 20 nM"),
]

So, COc1ccc(F)cc1C(=O)NCc1ccc(-c2nn(-c3ccc(N4CCC(CN5CCN(c6ccc7c(c6)CN([C@H]6CCC(=O)NC6=O)C7=O)CC5)C4)nc3)c3ncnc(N)c23)cc1 (some centres unmarked) ? Its IC50 was < 20 nM

So, `COc1ccc(F)cc1C(=O)NCc1ccc(-c2nn(-c3ccc(N4CCC(CN5CCN(c6ccc7c(c6)CN([C@H]6CCC(=O)NC6=O)C7=O)CC5)CC4)c(F)c3)c3ncnc(N)c23)cc1` ? Its IC50 was < 20 nM

So, `COc1ccc(F)cc1C(=O)NCc1ccc(-c2nn(-c3ccc(N4CC[C@@H](CN5CCN(c6ccc7c(c6)CN([C@H]6CCC(=O)NC6=O)C7=O)CC5)C4)c(F)c3)c3ncnc(N)c23)cc1` ? Its IC50 was < 20 nM
